- experimental system: Transcription initiation factor TFIID subunit 1-like (Homo sapiens, UniProt Q8IZX4)
- Sequence (Q8IZX4 whole entry): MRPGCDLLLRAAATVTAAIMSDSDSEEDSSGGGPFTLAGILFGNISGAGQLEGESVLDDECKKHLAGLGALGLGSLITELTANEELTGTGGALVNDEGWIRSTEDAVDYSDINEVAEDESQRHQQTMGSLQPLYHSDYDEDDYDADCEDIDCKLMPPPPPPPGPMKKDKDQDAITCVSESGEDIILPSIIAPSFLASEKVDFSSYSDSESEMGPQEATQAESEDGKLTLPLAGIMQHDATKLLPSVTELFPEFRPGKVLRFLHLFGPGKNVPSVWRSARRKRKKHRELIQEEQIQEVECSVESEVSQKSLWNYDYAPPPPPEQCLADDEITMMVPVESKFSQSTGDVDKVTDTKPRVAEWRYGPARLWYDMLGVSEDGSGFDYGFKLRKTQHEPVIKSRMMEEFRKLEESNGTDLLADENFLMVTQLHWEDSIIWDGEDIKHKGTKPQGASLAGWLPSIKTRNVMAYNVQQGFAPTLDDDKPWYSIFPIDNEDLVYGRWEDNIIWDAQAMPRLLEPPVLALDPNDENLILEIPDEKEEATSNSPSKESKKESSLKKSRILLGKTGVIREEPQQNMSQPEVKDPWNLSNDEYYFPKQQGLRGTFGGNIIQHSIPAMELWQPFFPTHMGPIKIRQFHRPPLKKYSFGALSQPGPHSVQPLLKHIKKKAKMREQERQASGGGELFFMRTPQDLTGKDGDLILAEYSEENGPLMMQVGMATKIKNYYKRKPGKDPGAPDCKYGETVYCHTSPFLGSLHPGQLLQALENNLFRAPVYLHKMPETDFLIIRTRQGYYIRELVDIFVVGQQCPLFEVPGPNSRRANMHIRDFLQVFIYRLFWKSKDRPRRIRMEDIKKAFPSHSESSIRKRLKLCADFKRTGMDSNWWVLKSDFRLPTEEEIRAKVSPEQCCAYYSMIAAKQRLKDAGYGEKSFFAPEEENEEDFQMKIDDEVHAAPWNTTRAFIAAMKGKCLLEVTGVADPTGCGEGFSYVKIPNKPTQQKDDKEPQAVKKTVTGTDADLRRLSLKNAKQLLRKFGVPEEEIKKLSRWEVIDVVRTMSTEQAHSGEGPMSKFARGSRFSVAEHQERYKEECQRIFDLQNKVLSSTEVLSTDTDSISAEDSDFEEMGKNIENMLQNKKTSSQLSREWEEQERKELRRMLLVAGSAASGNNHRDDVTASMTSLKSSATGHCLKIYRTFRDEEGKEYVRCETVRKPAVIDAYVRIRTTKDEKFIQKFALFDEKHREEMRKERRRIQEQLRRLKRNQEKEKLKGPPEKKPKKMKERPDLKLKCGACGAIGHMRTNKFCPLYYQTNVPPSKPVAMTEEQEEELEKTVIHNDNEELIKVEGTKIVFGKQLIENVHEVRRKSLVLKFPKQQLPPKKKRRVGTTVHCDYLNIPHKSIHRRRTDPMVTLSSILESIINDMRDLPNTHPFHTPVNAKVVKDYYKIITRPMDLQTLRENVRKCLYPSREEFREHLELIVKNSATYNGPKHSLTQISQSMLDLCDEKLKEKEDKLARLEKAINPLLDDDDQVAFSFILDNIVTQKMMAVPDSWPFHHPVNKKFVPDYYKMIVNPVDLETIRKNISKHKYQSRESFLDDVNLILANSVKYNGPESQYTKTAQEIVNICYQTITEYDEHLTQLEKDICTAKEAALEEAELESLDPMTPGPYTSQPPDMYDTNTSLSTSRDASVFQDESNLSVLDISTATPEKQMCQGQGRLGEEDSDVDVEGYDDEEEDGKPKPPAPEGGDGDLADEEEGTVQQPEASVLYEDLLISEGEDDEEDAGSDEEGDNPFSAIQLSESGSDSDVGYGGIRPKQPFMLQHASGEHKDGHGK
readout name: IC50

IC50 of COC[C@@H](CC(C)C)NC1=N/C(=C\c2ccc3scnc3c2)C(=O)N1 on Transcription initiation factor TFIID subunit 1-like (Homo sapiens, UniProt Q8IZX4)? > 1000 nM

* * *

Entries and their IC50
- experimental system: Glycogen synthase kinase-3 (Homo sapiens, UniProt P49840+P49841)
- Type: protein assay
Expressed in µM, but write only the number.

In the examples that follow, each entry is paired with its recorded IC50.
- smiles data: "COC[C@@H](CC(C)C)NC1=N/C(=C\\c2ccc3ncsc3c2)C(=O)N1C1CC1"
  IC50 [µM]: 8.988
- smiles data: "CC(C)C[C@@H](CO)NC1=N/C(=C\\c2ccc3ncsc3c2)C(=O)N1"
  IC50 [µM]: 8.165

# IC50 lookup, item O=C1NC(Nc2ccccc2)=N/C1=C\c1ccc2c(c1)OCO2 1.544

* * *

- experimental system: Dual specificity protein kinase CLK1 (Homo sapiens)
- Sequence (P49759 whole entry): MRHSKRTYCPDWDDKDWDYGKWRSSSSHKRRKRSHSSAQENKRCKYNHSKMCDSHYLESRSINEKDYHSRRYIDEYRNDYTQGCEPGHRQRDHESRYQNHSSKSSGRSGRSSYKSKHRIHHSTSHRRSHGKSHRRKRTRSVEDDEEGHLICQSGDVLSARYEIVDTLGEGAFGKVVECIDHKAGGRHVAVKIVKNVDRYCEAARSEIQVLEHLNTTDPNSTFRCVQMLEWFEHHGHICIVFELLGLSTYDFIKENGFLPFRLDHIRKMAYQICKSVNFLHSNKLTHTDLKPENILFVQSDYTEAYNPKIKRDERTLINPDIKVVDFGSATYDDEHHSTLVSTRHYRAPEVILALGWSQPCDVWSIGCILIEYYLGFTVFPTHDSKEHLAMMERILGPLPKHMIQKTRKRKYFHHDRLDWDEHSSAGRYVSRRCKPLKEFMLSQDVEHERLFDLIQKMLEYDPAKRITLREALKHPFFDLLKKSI
readout name: IC50

# IC50 lookup, item COC[C@@H](CC(C)C)NC1=N/C(=C\c2ccc3scnc3c2)C(=O)N1 > 1000 nM

* * *

Observed pIC50 for UniProt Q13627, reported per entry below.
pIC50 is a log-scale quantity: -log10 of the concentration expressed in molar.

- smiles data: "COC[C@@H](CC(C)C)NC1=N/C(=C\\c2ccc3[nH]cnc3c2)C(=O)N1C"
  experimental system: "UniProt Q13627"
  pIC50: 6.95
- smiles data: "COC[C@@H](CC(C)C)NC1=N/C(=C\\c2ccc3ncn(C)c3c2)C(=O)N1"
  experimental system: "UniProt Q13627"
  pIC50: 7.10
- smiles data: "COC[C@@H](CC(C)C)NC1=N/C(=C\\c2ccc3[nH]ccc3c2)C(=O)N1"
  experimental system: "UniProt Q13627"
  pIC50: 5.32

pIC50 of COC[C@@H](CC(C)C)NC1=N/C(=C\c2ccc3c(c2)CCO3)C(=O)N1C on UniProt Q13627? 6.31

pIC50 of COC[C@@H](CC(C)C)NC1=N/C(=C\c2ccc3c(c2)OCO3)C(=O)N1 on UniProt Q13627? 8.30

pIC50 of COC[C@@H](CC(C)C)NC1=N/C(=C\c2ccc3c(c2)CCO3)C(=O)N1 on UniProt Q13627? 7.94

pIC50 of COC[C@@H](CC(C)C)NC1=N/C(=C\c2ccc3c(c2)OCO3)C(=O)N1C on UniProt Q13627? 7.27

pIC50 of COC[C@@H](CC(C)C)NC1=N/C(=C\c2ccc3nc(C)sc3c2)C(=O)N1C on UniProt Q13627? 6.29

pIC50 of COC[C@@H](CC(C)C)NC1=N/C(=C\c2ccc3c(cnn3C)c2)C(=O)N1C on UniProt Q13627? 6.40

pIC50 of COC[C@@H](CC(C)C)NC1=N/C(=C\c2ccc3[nH]ccc3c2)C(=O)N1C on UniProt Q13627? 5.41

pIC50 of COC[C@@H](CC(C)C)NC1=N/C(=C\c2ccc3[nH]ncc3c2)C(=O)N1C on UniProt Q13627? 6.71

pIC50 of COC[C@@H](CC(C)C)NC1=N/C(=C\c2ccc3nnsc3c2)C(=O)N1C on UniProt Q13627? 6.02

pIC50 of COC[C@@H](CC(C)C)NC1=N/C(=C\c2ccc3ncsc3c2)C(=O)N1C1CC1 on UniProt Q13627? 6.30

pIC50 of COC[C@@H](CC(C)C)NC1=N/C(=C\c2ccc3ncsc3n2)C(=O)N1 on UniProt Q13627? 7.44

pIC50 of COC[C@@H](CC(C)C)NC1=N/C(=C\c2ccc3[nH]cnc3c2)C(=O)N1 on UniProt Q13627? 7.12

pIC50 of COC[C@@H](CC(C)C)NC1=N/C(=C\c2ccc3ncsc3c2)C(=O)N1C1CCC1 on UniProt Q13627? 5.25
